- measurement protocol: TOR pathway GLN3 branch reporter MEP2-GFP changes – S. cerevisiae, multiplex flow cytometry, MLPCN library, primary screen (AID 2016);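 also: median GFP fluorescence of the barcode-gated MEP2-GFP cells per well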
- run conditions: S. cerevisiae MEP2-GFP strain, 3 h, at 10 µM, 100% = DMSO control level
Out of some 330,000 compounds screened, about 1,700 (0.52%) were called active.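 The calls were made as follows: active = GFP response versus DMSO above a set limit, roughly screen mean plus 3 SD (cut at about 180% in these data); inconclusive = fewer than 70 cells counted for a yeast strain; inactive = the rest.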 The full list was thinned out, with actives kept by preference.
Classes to choose from: yes (1) (active), no (0) (inactive)

INPUT: Dear colleague, could you share the recorded outcome for Cc1cc(C)cc(N(CC(=O)NC2CCCC2)C(=O)CCC(=O)Nc2cc(C)on2)c1 when you have a moment?
OUTPUT: yes (1)

INPUT: Thanks! And O=C(CC(n1cncn1)C(Cl)(Cl)Cl)c1ccc([N+](=O)[O-])cc1 (stereo not drawn) ?
OUTPUT: no (0)

INPUT: Thanks! And O=C(N/N=C/c1cccnc1)c1ccc(NC(=O)c2ccc(F)cc2)cc1 ?
OUTPUT: no (0)

INPUT: Thanks! And CCOc1ccc(Br)cc1CSC(=N)N ?
OUTPUT: no (0)

INPUT: Thanks! And COc1ccc(C)cc1NC(=O)CN(C)S(=O)(=O)c1ccc2c(c1)n(C)c(=O)c(=O)n2C ?
OUTPUT: no (0)

INPUT: Thanks! And Cc1ccc(Nc2nc(C)cc(C)c2C(N)=O)cc1 ?
OUTPUT: yes (1)

INPUT: Thanks! And O=C1C2N=NN(CC(=O)N3N=C(c4cccc5ccccc45)CC3c3ccccc3)C2C(=O)N1c1ccccc1 (stereo not drawn) ?
OUTPUT: yes (1)

INPUT: Thanks! And O=C(N/N=C/c1cccc([N+](=O)[O-])c1)C1CC(=O)N(c2ccc(Br)cc2)C1 (stereo not drawn) ?
OUTPUT: no (0)

----------
- measurement protocol: TOR pathway GLN3 branch reporter MEP2-GFP changes – S. cerevisiae, multiplex flow cytometry, MLPCN library, primary screen (AID 2016);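 also: median GFP fluorescence of the barcode-gated MEP2-GFP cells per well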
- run conditions: S. cerevisiae MEP2-GFP strain, 3 h, at 10 µM, 100% = DMSO control level
Out of some 330,000 compounds screened, about 1,700 (0.52%) were called active.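 How the source made its calls: active means GFP response versus DMSO above a set limit, roughly screen mean plus 3 SD (cut at about 180% in these data); inconclusive means fewer than 70 cells counted for a yeast strain; inactive means the rest.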 This excerpt belongs to a sample that is enriched for actives.
Classes to choose from: True (active), False (inactive)

INPUT: Dear colleague, could you share the recorded outcome for COc1ccc(-c2cn3cccnc3n2)cc1 when you have a moment?
OUTPUT: False

INPUT: Thanks! And COc1ccc(CCNC(=O)CS(=O)(=O)Cc2nc(-c3ccc(C)cc3)oc2C)cc1OC ?
OUTPUT: True

INPUT: Thanks! And FC(F)(F)Oc1ccc(-c2cn3cccnc3n2)cc1 ?
OUTPUT: True

INPUT: Thanks! And Cc1ccc(-c2nc(CS(=O)(=O)CC(=O)NCc3ccc4c(c3)OCO4)c(C)o2)cc1 ?
OUTPUT: False

INPUT: Thanks! And COCCNc1nc2nonc2nc1N1CCCC1c1nccs1 (stereo not given) ?
OUTPUT: False

----------
- measurement protocol: TOR pathway GLN3 branch reporter MEP2-GFP changes – S. cerevisiae, multiplex flow cytometry, MLPCN library, primary screen (AID 2016);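 also: median GFP fluorescence of the barcode-gated MEP2-GFP cells per well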
- run conditions: S. cerevisiae MEP2-GFP strain, 3 h, at 10 µM, 100% = DMSO control level
In all, about 330,000 compounds went through this assay and about 1,700 (0.52%) were called active.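 Rule for the calls: active = GFP response versus DMSO above a set limit, roughly screen mean plus 3 SD (cut at about 180% in these data); inconclusive = fewer than 70 cells counted for a yeast strain; inactive = the rest.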 Shown is part of a subset that was picked to be rich in actives.
Classes to choose from: 1 (yes) = active, 0 (no) = inactive

INPUT: Dear colleague, could you share the recorded outcome for O=C(CS(=O)(=O)c1cn(Cc2cccc(F)c2)c2ccccc12)N1CCCCC1 when you have a moment?
OUTPUT: 1 (yes)

INPUT: Thanks! And CC(NC(=S)NC1CCCCC1)C(c1ccccc1)N1CCOCC1 (stereo not drawn) ?
OUTPUT: 0 (no)

INPUT: Thanks! And CN(C)S(=O)(=O)c1cc(C(=O)Nc2ccn(C)n2)c(Cl)cc1Cl ?
OUTPUT: 1 (yes)

INPUT: Thanks! And CCCC(=O)N(CCc1ccccc1)Cc1nc2ccccc2c(=O)[nH]1 ?
OUTPUT: 0 (no)

INPUT: Thanks! And CCOCc1nnc(NC(=O)CCC2CCCCC2)s1 ?
OUTPUT: 0 (no)

INPUT: Thanks! And CCn1c(C)nc2c1C(=O)c1ccccc1C2=O ?
OUTPUT: 0 (no)

INPUT: Thanks! And CCCN(CCC)CC(O)COc1ccccc1C(=O)Nc1ccccc1 (stereo not drawn) ?
OUTPUT: 0 (no)

INPUT: Thanks! And Cc1ccc(CCNC(=O)c2ccc3nc4ccccc4c(=O)n3c2)cc1 ?
OUTPUT: 0 (no)

INPUT: Thanks! And CCn1c(/C=C/c2ccc([N+](=O)[O-])o2)nc2ccccc2c1=O ?
OUTPUT: 1 (yes)

INPUT: Thanks! And COc1ccc(CNC(=O)COC(=O)C(CCSC)N2C(=O)c3ccccc3C2=O)cc1 (stereo not drawn) ?
OUTPUT: 0 (no)

INPUT: Thanks! And COc1ccc(CNC(=O)CN(C(=O)c2csnn2)c2cnc3ccccc3c2)cc1 ?
OUTPUT: 0 (no)

INPUT: Thanks! And O=C(CS(=O)(=O)c1cn(Cc2ccc(Cl)cc2)c2ccccc12)N1CCOCC1 ?
OUTPUT: 0 (no)

INPUT: Thanks! And CC(=O)Nc1ccc(NC(=O)CS(=O)(=O)c2cn(CC(=O)N3CCCCC3)c3ccccc23)cc1 ?
OUTPUT: 0 (no)
